- Condition Label: unbound blood clearance from CLb and plasma protein binding
Quantity Kind: in vivo mouse CLu (mL/min/kg)
Give your result in mL/min/kg as a bare value.

Use the examples below as a reference point.
Cn1ccc(-c2ccc3nccc(-c4ccc(C(C)(C)O)nc4)c3n2)cc1=O = 379
CS(=O)(=O)c1cccc(-c2ccnc3ccc(N4CCC(O)CC4)nc23)c1 = 533
CS(=O)(=O)c1cccc(-c2ccc3nccc(-c4ccc(C(=O)N5CCC(O)C5)cc4)c3n2)c1 (stereo not shown) = 362

Kindly consider the entry below.
Lookup: Identify measured in vivo mouse CLu associated with Cn1ccc(-c2ccc3nccc(-c4cccc(S(C)(=O)=O)c4)c3n2)cc1=O
Found: 300
